Where do the numbers come from? From patent US8153134.

Assay System: T1, hMDL-1-hIG (human, UniProt Q9NY25 28-188)
T1 construct: Fusion of human MDL-1 with human Ig used in the BIAcore assay; MDL-1 is a type II membrane protein, so the Ig part may stand N-terminal; also called MDL-1-hIg ligand; not shown: human Ig part (hIG)
T1 sequence: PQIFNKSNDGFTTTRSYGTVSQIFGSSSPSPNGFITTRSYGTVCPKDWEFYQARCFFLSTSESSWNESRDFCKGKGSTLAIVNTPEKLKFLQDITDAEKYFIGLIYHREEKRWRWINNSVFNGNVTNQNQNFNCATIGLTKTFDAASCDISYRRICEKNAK
Assay Text: BIAcore SPR; hMDL-1-hIG as capture antigen on the chip, mAb as analyte
Description: Determining the Equilibrium Dissociation Constant (K_d) for Humanized Anti-Human MDL-1 Antibodies Using BIAcore Technology BIAcore determinations are performed essentially as described at Example 4 of co-pending, commonly assigned U.S. patent application Ser. No. 11/511,635 (filed 29 Aug. 2006). […] Kinetic constants for the various interactions are determined using BIAevaluation software 3.1. The K_d is determined using the calculated dissociation and association rate constants.
Reported Endpoint: koff

INSERT INTO results (binder, observed_value) VALUES
  ('DX246 (antibody, V domains shown, Rodent anti-human MDL-1 monoclonal antibody from a hybridoma; VL of the kappa subclass; also called anti-MDL-1 antibody clone DX246; ATCC PTA-8376) VH: QVTLKESGPGILKPSQTLSLTCSFSGFSLSTSGMNVGWIRQPSGKGLEWLAHIWWDDDKYYNPSLKSQLTISKDTSRNQVFLKITSVDTADTATYYCARRAFYGSNYDYYAMDYWGQGTSVTVSS VL: ENVLTQSPAIMSASPGEKVTMTCSVSSSVSYIHWYQQKSSTSPKLWIYDTSKLASGVPGRFSGSGSGNSYSLTISSMEAEDVATYYCFQGSGYPLTFGAGTKLELKR', '0.000817 s⁻¹');
